- measured_target: Proteinase-activated receptor 1 (Homo sapiens)
- Sequence (P25116 whole entry): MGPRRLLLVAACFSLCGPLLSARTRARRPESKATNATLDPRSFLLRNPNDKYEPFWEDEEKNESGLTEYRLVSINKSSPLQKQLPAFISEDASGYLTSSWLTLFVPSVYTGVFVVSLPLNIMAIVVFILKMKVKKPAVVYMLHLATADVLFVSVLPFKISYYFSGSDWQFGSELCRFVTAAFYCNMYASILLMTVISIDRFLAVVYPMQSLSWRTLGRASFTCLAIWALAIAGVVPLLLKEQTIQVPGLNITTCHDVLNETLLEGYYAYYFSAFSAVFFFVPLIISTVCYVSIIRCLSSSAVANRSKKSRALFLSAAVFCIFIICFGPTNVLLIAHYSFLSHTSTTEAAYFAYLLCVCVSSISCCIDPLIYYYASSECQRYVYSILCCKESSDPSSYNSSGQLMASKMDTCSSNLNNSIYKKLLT
Non-standard residues stand in square brackets, D forms with d. Residues, ends and D or L forms follow the SMILES beside them. *: point of attachment. Phe(4-guanidino) = N=C(N)Nc1ccc(C[C@H](N)C(=O)O)cc1; Phe(4-F) = N[C@@H](Cc1ccc(F)cc1)C(=O)O; X10 = O=C(c1c[nH]c2ccccc12)*; X2 = O=S(=O)(c1cccs1)*
Reported IC50 maps to class as: bottom range: < 40 nM; center range: ≥ 40 nM and < 500 nM; top range: ≥ 500 nM

[
  {
    "molecule": "CC(=O)N(C(=O)/C=C/c1ccccc1)[C@@H](Cc1ccccc1)C(=O)N[C@@H](Cc1ccc(NC(=N)N)cc1)C(=O)N[C@@H](CC(C)C)C(=O)N[C@@H](CCCN=C(N)N)C(N)=O",
    "measured_target": "Proteinase-activated receptor 1 (Homo sapiens)",
    "discrete_label": "bottom range"
  },
  {
    "molecule": "CC(=O)N(c1cccnc1)[C@@H](Cc1ccc(F)cc1)C(=O)N[C@@H](Cc1ccc(NC(=N)N)cc1)C(=O)N[C@@H](CC(C)C)C(=O)N[C@@H](CCCN=C(N)N)C(N)=O",
    "measured_target": "Proteinase-activated receptor 1 (Homo sapiens)",
    "discrete_label": "top range"
  },
  {
    "molecule": "CC(=O)N(C(=O)/C=C/c1ccccc1)[C@@H](Cc1ccc(F)cc1)C(=O)N[C@@H](Cc1c[nH]cn1)C(=O)N[C@@H](CC(C)C)C(=O)N[C@@H](CCCN=C(N)N)C(N)=O",
    "measured_target": "Proteinase-activated receptor 1 (Homo sapiens)",
    "discrete_label": "center range"
  },
  {
    "molecule": "CC(=O)N(C(=O)/C=C/c1ccccc1)[C@@H](Cc1ccc(F)cc1)C(=O)N[C@@H](Cc1ccc(N)cc1)C(=O)N[C@@H](CC(C)C)C(=O)N[C@@H](CCCN=C(N)N)C(N)=O",
    "measured_target": "Proteinase-activated receptor 1 (Homo sapiens)",
    "discrete_label": "center range"
  },
  {
    "molecule": "CC(=O)N(C(=O)/C=C/c1ccc(N)cc1)[C@@H](Cc1ccc(F)cc1)C(=O)N[C@@H](Cc1ccc(NC(=N)N)cc1)C(=O)N[C@@H](CC(C)C)C(=O)N[C@@H](CCCN=C(N)N)C(N)=O",
    "measured_target": "Proteinase-activated receptor 1 (Homo sapiens)",
    "discrete_label": "center range"
  },
  {
    "molecule": "CC(=O)N(C(=O)/C=C/c1ccc(C)cc1)[C@@H](Cc1ccc(F)cc1)C(=O)N[C@@H](Cc1ccc(NC(=N)N)cc1)C(=O)N[C@@H](CC(C)C)C(=O)N[C@@H](CCCN=C(N)N)C(N)=O (stereo in doubt; 45)",
    "measured_target": "Proteinase-activated receptor 1 (Homo sapiens)",
    "discrete_label": "bottom range"
  },
  {
    "molecule": "CC(=O)N(C(=O)Cc1ccc2ccccc2c1)[C@@H](Cc1ccc(F)cc1)C(=O)N[C@@H](Cc1ccc(NC(=N)N)cc1)C(=O)N[C@@H](CC(C)C)C(=O)N[C@@H](CCCN=C(N)N)C(N)=O",
    "measured_target": "Proteinase-activated receptor 1 (Homo sapiens)",
    "discrete_label": "center range"
  },
  {
    "molecule": "CC(=O)N(C(=O)/C=C/c1ccccc1)[C@@H](Cc1ccc(F)cc1)C(=O)N[C@@H](CCCCN=C(N(C)C)N(C)C)C(=O)N[C@@H](CC(C)C)C(=O)N[C@@H](CCCN=C(N)N)C(N)=O",
    "measured_target": "Proteinase-activated receptor 1 (Homo sapiens)",
    "discrete_label": "center range"
  },
  {
    "molecule": "CC(=O)N(C(=O)/C=C/c1ccccc1)[C@@H](Cc1ccc(F)cc1)C(=O)N[C@@H](Cc1ccccc1)C(=O)N[C@@H](CC(C)C)C(=O)N[C@@H](CCCN=C(N)N)C(N)=O",
    "measured_target": "Proteinase-activated receptor 1 (Homo sapiens)",
    "discrete_label": "top range"
  },
  {
    "molecule": "CC(=O)N(C(=O)/C=C/c1ccccc1)[C@@H](Cc1cccs1)C(=O)N[C@@H](Cc1ccc(NC(=N)N)cc1)C(=O)N[C@@H](CC(C)C)C(=O)N[C@@H](CCCN=C(N)N)C(N)=O",
    "measured_target": "Proteinase-activated receptor 1 (Homo sapiens)",
    "discrete_label": "center range"
  },
  {
    "molecule": "CC(C)C[C@H](NC(=O)[C@H](Cc1ccc(NC(=N)N)cc1)NC(=O)[C@H](Cc1ccc(F)cc1)NS(=O)(=O)c1cccs1)C(=O)N[C@@H](CCCN=C(N)N)C(N)=O (X2-[Phe(4-F)][Phe(4-guanidino)]LR-NH2)",
    "measured_target": "Proteinase-activated receptor 1 (Homo sapiens)",
    "discrete_label": "top range"
  },
  {
    "molecule": "CC(=O)N(C(=O)/C=C/c1ccccc1)[C@@H](Cc1ccc(F)cc1)C(=O)N[C@@H](Cc1ccc(NC(=N)N)cc1)C(N)=O",
    "measured_target": "Proteinase-activated receptor 1 (Homo sapiens)",
    "discrete_label": "top range"
  },
  {
    "molecule": "CC(C)C[C@H](NC(=O)[C@H](Cc1ccc(NC(=N)N)cc1)NC(=O)[C@H](Cc1ccc(F)cc1)NC(=O)c1c[nH]c2ccccc12)C(=O)N[C@@H](CCCN=C(N)N)C(N)=O (X10-[Phe(4-F)][Phe(4-guanidino)]LR-NH2)",
    "measured_target": "Proteinase-activated receptor 1 (Homo sapiens)",
    "discrete_label": "bottom range"
  },
  {
    "molecule": "CC(=O)N(C(=O)CSc1ccccc1)[C@@H](Cc1ccc(F)cc1)C(=O)N[C@@H](Cc1ccc(NC(=N)N)cc1)C(=O)N[C@@H](CC(C)C)C(=O)N[C@@H](CCCN=C(N)N)C(N)=O",
    "measured_target": "Proteinase-activated receptor 1 (Homo sapiens)",
    "discrete_label": "bottom range"
  },
  {
    "molecule": "CC(=O)N(c1ccccc1)[C@@H](Cc1ccc(F)cc1)C(=O)N[C@@H](Cc1ccc(NC(=N)N)cc1)C(=O)N[C@@H](CC(C)C)C(=O)N[C@@H](CCCN=C(N)N)C(N)=O",
    "measured_target": "Proteinase-activated receptor 1 (Homo sapiens)",
    "discrete_label": "top range"
  },
  {
    "molecule": "CCC(=O)c1cccc(N(C(C)=O)[C@@H](Cc2ccc(F)cc2)C(=O)N[C@@H](Cc2ccc(NC(=N)N)cc2)C(=O)N[C@@H](CC(C)C)C(=O)N[C@@H](CCCN=C(N)N)C(N)=O)c1",
    "measured_target": "Proteinase-activated receptor 1 (Homo sapiens)",
    "discrete_label": "center range"
  },
  {
    "molecule": "CC(=O)N(C(=O)/C=C/c1ccc(F)cc1)[C@@H](Cc1ccc(F)cc1)C(=O)N[C@@H](Cc1ccc(NC(=N)N)cc1)C(=O)N[C@@H](CC(C)C)C(=O)N[C@@H](CCCN=C(N)N)C(N)=O (stereo in doubt; 43)",
    "measured_target": "Proteinase-activated receptor 1 (Homo sapiens)",
    "discrete_label": "bottom range"
  },
  {
    "molecule": "CC(=O)N(c1cccs1)[C@@H](Cc1ccc(F)cc1)C(=O)N[C@@H](Cc1ccc(NC(=N)N)cc1)C(=O)N[C@@H](CC(C)C)C(=O)N[C@@H](CCCN=C(N)N)C(N)=O",
    "measured_target": "Proteinase-activated receptor 1 (Homo sapiens)",
    "discrete_label": "center range"
  },
  {
    "molecule": "CCCC(=O)c1ccc(N(C(C)=O)[C@@H](Cc2ccc(F)cc2)C(=O)N[C@@H](Cc2ccc(NC(=N)N)cc2)C(=O)N[C@@H](CC(C)C)C(=O)N[C@@H](CCCN=C(N)N)C(N)=O)cc1",
    "measured_target": "Proteinase-activated receptor 1 (Homo sapiens)",
    "discrete_label": "top range"
  },
  {
    "molecule": "CCCCC/C=C/CC(=O)N(C(C)=O)[C@@H](Cc1ccc(F)cc1)C(=O)N[C@@H](Cc1ccc(NC(=N)N)cc1)C(=O)N[C@@H](CC(C)C)C(=O)N[C@@H](CCCN=C(N)N)C(N)=O",
    "measured_target": "Proteinase-activated receptor 1 (Homo sapiens)",
    "discrete_label": "bottom range"
  }
]
